We begin with a simple list: items and their reported pIC50.
Biological target: human glucagon receptor (Homo sapiens)
Construct: expressed in transfected cells; host or cells: BHK (baby hamster kidney) cells
Assay: Glucagon Binding Assay (III)
Conditions: BHK cell membranes, WGA SPA beads, 125I-glucagon; read-out: Glu Bd Assay (III) IC50
Protocol: BHK (baby hamster kidney cell line) cells were transfected with the human glucagon receptor and a membrane preparation of the cells was prepared. All steps in the membrane preparation were kept on ice or performed at 4° C. BHK cells were harvested and centrifuged. […] The glucagon binding assay was carried out in opti plates (Polystyrene Microplates, Packard). […] The opti plates were counted in a Topcounter. Non-specific binding was determined with 500 nM of glucagon.
Would you please state pIC50, meaning minus log10 of the concentration in mol/L, as a bare number?

COc1ccc2nc(NC(=O)N(Cc3ccc(C(=O)Nc4nn[nH]n4)cc3)c3ccc(C4CCCCC4)cc3)sc2c1	5.85
CC(C)(C)C1CCC(N(Cc2ccc(C(=O)Nc3nn[nH]n3)cc2)C(=O)C=Cc2c(Cl)cccc2Cl)CC1 (stereo not shown)	6.33
CC(C)(C)C1CCC(N(Cc2ccc(C(=O)Nc3nn[nH]n3)cc2)C(=O)c2cc(-c3ccc(Cl)cc3)cs2)CC1 (stereo not shown)	7.01

Shifting focus to the compound that follows.
Asked: Given CS(=O)(=O)c1ccc(NC(=O)N(Cc2ccc(C(=O)Nc3nn[nH]n3)cc2)c2ccc(OC(F)(F)F)cc2)cc1 , state its recorded pIC50.
Given back: 5.46

---

target: human glucagon receptor (Homo sapiens, UniProt P47871); construct: expressed in transfected cells; host or cells: BHK (baby hamster kidney) cells; assay: Glucagon Binding Assay (III); settings: BHK cell membranes, WGA SPA beads, 125I-glucagon; read-out: Glu Bd Assay (III) IC50
Sequence (P47871 26-477): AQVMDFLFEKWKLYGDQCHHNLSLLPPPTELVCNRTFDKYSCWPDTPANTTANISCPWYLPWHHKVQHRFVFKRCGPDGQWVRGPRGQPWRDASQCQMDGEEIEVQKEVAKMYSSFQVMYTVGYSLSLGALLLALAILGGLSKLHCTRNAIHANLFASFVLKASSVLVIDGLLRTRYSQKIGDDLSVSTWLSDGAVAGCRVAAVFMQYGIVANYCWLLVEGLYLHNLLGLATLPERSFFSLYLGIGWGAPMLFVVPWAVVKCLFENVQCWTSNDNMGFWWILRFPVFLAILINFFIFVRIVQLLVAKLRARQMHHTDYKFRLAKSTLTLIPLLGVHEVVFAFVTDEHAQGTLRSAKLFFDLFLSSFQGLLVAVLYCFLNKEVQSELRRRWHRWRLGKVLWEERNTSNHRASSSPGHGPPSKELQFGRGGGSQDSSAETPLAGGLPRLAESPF
We begin with a simple list: items and their reported pIC50.
Would you please state pIC50, meaning minus log10 of the concentration in mol/L, as a bare number?

Would you please look over these solved cases?
CC(C)(C)c1ccc(N(Cc2ccc(C(=O)Nc3nn[nH]n3)cc2)C(=O)Oc2cc(C(F)(F)F)cc(C(F)(F)F)c2)cc1	6.12
CC(C)(C)c1ccc(N(Cc2ccc(C(=O)NCCC(=O)O)cc2)C(=O)Nc2ccc(OC(F)(F)F)cc2)cc1	7.02
O=C(O)CCNC(=O)c1ccc(CN(CCC(c2ccccc2)c2ccccc2)C(=O)Nc2ccc(OC(F)(F)F)cc2)cc1	6.90
CC(C)(C)c1ccc(N(Cc2ccc(C(=O)Nc3nn[nH]n3)cc2)C(=O)Nc2cccc(C(=O)Oc3c(F)c(F)c(F)c(F)c3F)c2)cc1	6.08

Asked: Given CC(C)(C)c1ccc(N(Cc2ccc(C(=O)Nc3nn[nH]n3)cc2)C(=O)Nc2ccccc2)cc1 , state its recorded pIC50.
Given back: 6.56

Asked: Could you do the same for CC(C)(C)C1CCC(N(Cc2ccc(C(=O)NCCC(=O)O)cc2)C(=O)Oc2cc(C(F)(F)F)cc(C(F)(F)F)c2)CC1 (centres unmarked) , please?
Given back: 6.47

Asked: Could you do the same for CNS(=O)(=O)c1ccc(Cl)c(NC(=O)N(Cc2ccc(C(=O)Nc3nn[nH]n3)cc2)c2ccc(C3CCCCC3)cc2)c1 , please?
Given back: 6.11

Asked: Could you do the same for CC(C)(C)C1CCC(N(Cc2ccc(C(=O)Nc3nn[nH]n3)cc2)C(=O)c2cccc3ccccc23)CC1 (centres unmarked) , please?
Given back: 6.35

Asked: Could you do the same for O=C(Nc1nn[nH]n1)c1ccc(CN(C(=O)Nc2nc3cc4c(cc3s2)OC(F)(F)C(F)(F)O4)c2ccc(C3CCCCC3)cc2)cc1 , please?
Given back: 6.98

Asked: Could you do the same for CCCCC(CC)CN(Cc1ccc(C(=O)NCCC(=O)O)cc1)C(=O)Nc1ccc(Cl)cc1 (centres unmarked) , please?
Given back: 6.03

Asked: Could you do the same for O=C(Nc1nn[nH]n1)c1ccc(CN(C(=O)Nc2cc(C(F)(F)F)ccc2C(F)(F)F)c2ccc(C3=CCCCC3)cc2)cc1 , please?
Given back: 6.92

Asked: Could you do the same for O=C(Nc1nn[nH]n1)c1ccc(CN(C(=O)Nc2cccc(C(F)(F)F)c2)c2ccc(C3CCCCC3)cc2)cc1 , please?
Given back: 8.30

Asked: Could you do the same for CC(C)(C)c1ccc(N(Cc2ccc(C(=O)Nc3nn[nH]n3)cc2)C(=O)Nc2nc3ccc(OC(F)(F)F)cc3s2)cc1 , please?
Given back: 6.98

Asked: Could you do the same for O=C(Nc1nn[nH]n1)c1ccc(CN(C(=O)/C=C/c2ccccc2Cl)c2ccc(C3CCCCC3)cc2)cc1 , please?
Given back: 6.85

---

We begin with a simple list: items and their reported IC50.
target: human glucagon receptor (Homo sapiens, UniProt P47871); construct: expressed in transfected cells; host or cells: BHK (baby hamster kidney) cells; assay: Glucagon Binding Assay (III); conditions: Glu Bd Assay (III) IC50 (nM), BHK cell membranes, WGA SPA beads, 125I-glucagon
Give the value in nM but do not write nM after it.

Would you please look over these solved cases?
CC(C)(C)[C@H]1CC[C@H](N(Cc2ccc(C(=O)NCCC(=O)O)cc2)C(=O)Nc2ccc(OC(F)(F)F)cc2)CC1	47
CC(C)(C)[C@H]1CC[C@@H](N(Cc2ccc(C(=O)NCCC(=O)O)cc2)C(=O)Nc2ccc(OC(F)(F)F)cc2)CC1	47

Asked: Given CC(C)(C)[C@H]1CC[C@H](N(Cc2ccc(C(=O)NCCC(=O)O)cc2)C(=O)Nc2ccc(OC(F)(F)F)cc2Br)CC1 , state its recorded IC50.
Given back: 153

---

molecular target: human glucagon receptor (Homo sapiens, UniProt P47871); construct: expressed in transfected cells; host or cells: BHK (baby hamster kidney) cells; experiment: Glucagon Binding Assay (III); settings: BHK cell membranes, WGA SPA beads, 125I-glucagon; read-out: Glu Bd Assay (III) IC50
pIC50: −log10 of the molar value.
Quick rule for you: pIC50 at 7 or higher means condition met, lower means condition not met.

Asked: Could you tell me if the measured pIC50 of CC(C)(C)C1CCC(N(Cc2ccc(C(=O)NCCC(=O)O)cc2)C(=O)Nc2ccccc2-c2ccccc2)CC1 (stereo not shown) reaches 7 or more?
Given back: condition not met

Asked: Could you do the same for O=C(O)CCNC(=O)c1ccc(CN(C(=O)Oc2ccc(Cl)cc2Cl)c2ccc(C3CCCCC3)cc2)cc1 , please?
Given back: condition not met

Asked: Could you do the same for O=C(Nc1nn[nH]n1)c1ccc(CN(C(=O)Nc2ccc(OC(F)(F)F)cc2)c2ccc(N3CCCCC3)cc2)cc1 , please?
Given back: condition not met

Asked: Could you do the same for CCCCN1C(=O)c2ccc(NC(=O)N(Cc3ccc(C(=O)Nc4nn[nH]n4)cc3)c3ccc(C(C)(C)C)cc3)cc2C1=O , please?
Given back: condition met

Asked: Could you do the same for O=C(Nc1nn[nH]n1)c1ccc(CN(C(=O)Nc2cccc(C(F)(F)F)c2)c2ccc(C3=CCCCC3)cc2)cc1 , please?
Given back: condition met

Asked: Could you do the same for O=C(Nc1nn[nH]n1)c1ccc(CN(C(=O)Nc2cc(Cl)cc(Cl)c2)c2ccc(C3CCCCC3)cc2)cc1 , please?
Given back: condition met

Asked: Could you do the same for O=C(O)CCNC(=O)c1ccc(CN(C(=O)c2cc(-c3ccc(Cl)cc3)cs2)c2ccc(C3CCCCC3)cc2)cc1 , please?
Given back: condition not met

---

biological target: human glucagon receptor (Homo sapiens, UniProt P47871); construct: expressed in transfected cells; host or cells: BHK (baby hamster kidney) cells; experiment: Glucagon Binding Assay (III); settings: BHK cell membranes, WGA SPA beads, 125I-glucagon; read-out: Glu Bd Assay (III) IC50
OUTCOME MEASURE: pIC50
Would you please state pIC50, meaning minus log10 of the concentration in mol/L, as a bare number?

CC(C)Cc1ccc(C(=O)N(Cc2ccc(C(=O)Nc3nn[nH]n3)cc2)c2ccc(C3CCCCC3)cc2)cc1 [Example 507]	6.35
CC(C)(C)C1CCC(N(Cc2ccc(C(=O)NCCC(=O)O)cc2)C(=O)Oc2ccc(Br)cc2Br)CC1 (stereo not shown) [Example 404]	6.46
CC(C)(C)C1CCC(N(Cc2ccc(C(=O)Nc3nn[nH]n3)cc2)C(=O)Oc2ccc(S(C)(=O)=O)cc2)CC1 (stereo not shown) [Example 623]	5.57

Asked: Given O=C(Nc1nn[nH]n1)c1ccc(CN(C(=O)Nc2cccc(Br)c2)c2ccc(C3CCCCC3)cc2)cc1 [Example 356] , state its recorded pIC50.
Given back: 7.80

---

We begin with a simple list: items and their reported IC50.
target: human glucagon receptor (Homo sapiens, UniProt P47871); construct: expressed in transfected cells; host or cells: BHK (baby hamster kidney) cells; experiment: Glucagon Binding Assay (III); settings: BHK cell membranes, WGA SPA beads, 125I-glucagon; read-out: Glu Bd Assay (III) IC50
Give the value in nM but do not write nM after it.

Would you please look over these solved cases?
CC(C)(C)C1CCC(N(Cc2ccc(C(=O)NCCC(=O)O)cc2)C(=O)Nc2ccc(SC(F)(F)F)cc2)CC1 (stereo not drawn)	139
CC(NC(=O)N(Cc1ccc(C(=O)Nc2nn[nH]n2)cc1)c1ccc(C2CCCCC2)cc1)c1ccc(Cl)cc1 (single isomer, unassigned) [Example 338]	169
CC(C)(C)[C@H]1CC[C@H](N(Cc2ccc(C(=O)Nc3nn[nH]n3)cc2)NC(=O)c2ccc(OC(F)(F)F)cc2)CC1	71
O=C(O)CCNC(=O)c1ccc(CN(C(=O)c2cc3ccccc3s2)C2CCC3(CCCCC3)CC2)cc1	479

Asked: Given CCOC(=O)c1ccc2nc(NC(=O)N(Cc3ccc(C(=O)Nc4nn[nH]n4)cc3)c3ccc(C4CCCCC4)cc3)sc2c1 , state its recorded IC50.
Given back: 99

Asked: Could you do the same for O=C(Nc1nn[nH]n1)c1ccc(CN(C(=O)c2cccc([N+](=O)[O-])c2)c2ccc(C3CCCCC3)cc2)cc1 , please?
Given back: 1980

Asked: Could you do the same for O=C(O)CCNC(=O)c1ccc(CN(C(=O)Nc2ccc(OC(F)(F)F)cc2)[C@H]2CC[C@H](c3ccccc3)CC2)cc1 , please?
Given back: 143

Asked: Could you do the same for CCCCc1ccc(N(Cc2ccc(C(=O)Nc3nn[nH]n3)cc2)C(=O)Nc2cccc(C#N)c2)cc1 , please?
Given back: 185

Asked: Could you do the same for O=C(O)CCNC(=O)c1ccc(CN(C(=O)Oc2cccc([N+](=O)[O-])c2)c2ccc(C3CCCCC3)cc2)cc1 , please?
Given back: 934

Asked: Could you do the same for CC(C)Oc1ccc(C(=O)N(Cc2ccc(C(=O)NCCC(=O)O)cc2)c2ccc(C3CCCCC3)cc2)cc1 , please?
Given back: 2110

Asked: Could you do the same for O=C(O)CCNC(=O)c1ccc(CN(CC(c2ccccc2)c2ccccc2)C(=O)Cc2ccc(OC(F)(F)F)cc2)cc1 , please?
Given back: 235

Asked: Could you do the same for O=C(O)CCNC(=O)c1ccc(CN(Cc2ccc(Cl)c(Cl)c2)C(=O)Nc2ccc(OC(F)(F)F)cc2)cc1 , please?
Given back: 1800

Asked: Could you do the same for CC(C)(C)[C@H]1CC[C@H](N(Cc2ccc(C(=O)NCCC(=O)O)cc2)C(=O)Nc2ccc(Cl)cc2Cl)CC1 , please?
Given back: 352

Asked: Could you do the same for CC(C)(C)C1CCC(N(Cc2ccc(C(=O)Nc3nn[nH]n3)cc2)C(=O)c2ccc(OC(F)(F)F)cc2)CC1 (stereo not drawn) , please?
Given back: 150

Asked: Could you do the same for CC(C)(C)c1ccc(N(Cc2ccc(C(=O)NCCC(=O)O)cc2)C(=O)Oc2cc(C(F)(F)F)cc(C(F)(F)F)c2)cc1 , please?
Given back: 386

Asked: Could you do the same for CC(C)(C)C1CCC(N(Cc2ccc(C(=O)NCCC(=O)O)cc2)C(=O)Nc2cccc(S(C)(=O)=O)c2)CC1 (stereo not drawn) , please?
Given back: 1320

Asked: Could you do the same for O=C(Nc1nn[nH]n1)c1ccc(CN(C(=O)Nc2ccc(OC(F)(F)F)c(CO)c2)c2ccc(C3CCCCC3)cc2)cc1 , please?
Given back: 13

Asked: Could you do the same for CC(C)Cc1ccc(C(=O)N(Cc2ccc(C(=O)Nc3nn[nH]n3)cc2)C2CCC(C(C)(C)C)CC2)cc1 (stereo not drawn) , please?
Given back: 58

Asked: Could you do the same for CC(C)(C)C1CCC(N(Cc2ccc(C(=O)NCCC(=O)O)cc2)C(=O)Nc2ccc(Cl)c(C(F)(F)F)c2)CC1 (stereo not drawn) , please?
Given back: 61

Asked: Could you do the same for O=C(Nc1nn[nH]n1)c1ccc(CN(C(=O)Nc2cccc(S(=O)(=O)C3CCCC3)c2)c2ccc(C3CCCCC3)cc2)cc1 , please?
Given back: 252

Asked: Could you do the same for O=C(Nc1nn[nH]n1)c1ccc(CN(C(=O)Nc2ccc3c(c2)C(F)(F)OC(F)(F)O3)c2ccc(C3CCCCC3)cc2)cc1 , please?
Given back: 12

Origin of the recorded values: patent US6875760B2
